# key: entry, value: viability at 5 days
assay: Cell viability after MTX or PTX treatment (FIG. 17); assay type: cell-based; conditions: human, HEK293T cells; after 5-days of MTX or PTX treatment; read-out: viable cells

| compound | reading |
| --- | --- |
| CN(Cc1cnc2nc(N)nc(N)c2n1)c1ccc(C(=O)N[C@@H](CCC(=O)O)C(=O)O)cc1 [MTX, methotrexate] | 20 to 25% |

Alright, here's another compound for you.
INPUT: # lookup: viability at 5 days of Nc1nc2[nH]cc(CCc3ccc(C(=O)N[C@@H](CCC(=O)O)C(=O)O)cc3)c2c(=O)[nH]1
OUTPUT: 20 to 25%
